runDescription: gradient 5% acetonitrile 3 min, to 50% in 2 min, to 85% in 15 min, held 3 min, 100 µL/min
conditionInfo: column: Zorbax Extend-C18 2.1 x 50 mm; eluents: water / acetonitrile, 0.1% formic acid
Note to self: class labels come from recorded RP-LC retention time, ranges listed here: bin 1 (below 800 s), bin 2 (800 s to below 1000 s), bin 3 (1000 s or more)

Enquiry: Which category fits this record: Cc1ccc(-c2cc3c(N4CCCC(C(=O)NCCC5=CCCCC5)C4)nccn3n2)c(C)c1 (stereo not drawn)
Return: bin 3

Enquiry: Please classify: "Cc1ccc(-c2nc(-c3ccc(-n4cccn4)nc3)no2)cc1"
Return: bin 3

Enquiry: Assign a bin to "CCOC(=O)c1nc(NCC2CCN(Cc3ccccc3Cl)CC2)c2ccccc2n1"
Return: bin 3

Enquiry: Class? Entry: CCC1CN2C=NC(N3CCN(C(=O)Nc4cccc(SC)c4)CC3)=CC2=N1 (stereo not drawn)
Return: bin 1

Enquiry: Sort COc1ccc2[nH]c3c(c2c1)CCN1C(=O)N(CCc2ccc(OC)c(OC)c2)C(=O)C31C (stereo not drawn) into one of the categories.
Return: bin 2

Enquiry: // bin(item) where item = "Cc1noc(-c2ccc(OC3CN(C(=O)Cc4cccs4)C3)cc2)n1"
Return: bin 2

Enquiry: Band for the recorded RP-LC retention time of "O=C(Cn1cccc1-c1nnc(-c2ccccc2)o1)Nc1cccc(Cl)c1" ?
Return: bin 3

Enquiry: Record "CCOc1ccc(-c2nc(-c3cccc(-c4ccn[nH]4)c3)no2)cc1OCC" — which class?
Return: bin 3

More entries:
Enquiry: Field: class (RP-LC retention time) — entry: "O=C(O)C1CCN(C(=O)Cc2n[nH]c(=O)c3ccccc23)CC1"
Return: bin 1

Enquiry: Using the reported RP-LC retention time, which band applies to "CCCc1cc(N2CCN(C(=O)c3ccc(F)cc3)CC2)nc2nncn12" ?
Return: bin 1

Enquiry: Band assignment needed for "Cc1cccc(NC(=O)Cn2cnc(-c3nc(C)cs3)c2)c1" please.
Return: bin 1

* * *

runDescription: gradient 5% acetonitrile 3 min, to 50% in 2 min, to 85% in 15 min, held 3 min, 100 µL/min
conditionInfo: column: Zorbax Extend-C18 2.1 x 50 mm; eluents: water / acetonitrile, 0.1% formic acid
quantityKind: RP-LC retention time (s)
One number for each entry, in s.

Below: 5 molecules and their reported RP-LC retention time.
Enquiry: Please indicate RP-LC retention time recorded for "CCc1ccc(NC(=O)Cn2nc3cc(-c4ccccc4)nc(C)n3c2=O)cc1"
Return: 899

Enquiry: Give recorded RP-LC retention time. "COc1ccc(-c2csc(NC(=O)CCn3c(=O)sc4ccccc43)n2)cc1OC"
Return: 917

Enquiry: Indicate its recorded RP-LC retention time; the molecule in question is "O=C(Nc1nnc(C2CCCCC2)s1)C1CCN(C(=O)c2ccccc2)CC1"
Return: 789

Enquiry: Give the value of RP-LC retention time reported for the following: "Cc1cc(=O)n(CC(=O)Nc2cc(F)ccc2F)c(N2CCOCC2)n1"
Return: 698

Enquiry: Annotate the molecule "Cn1nc(C(=O)N2CCOCC2)c2c1CCN(C(=O)Nc1cccc(Br)c1)C2" with its measured RP-LC retention time.
Return: 726

I would be grateful if you could provide RP-LC retention time for each of the following entries.
1. CCOC(=O)c1c(C)c(CCC(=O)N2CCCCCC2)n(CC)c1C
2. O=C(NCCc1csc(C2CCCN(C(=O)C3CCCC3)C2)n1)C1CC1 (configuration not stated)
3. CCn1cc(CN2CCC(C(=O)NCc3ccc(N(C)C)cc3)CC2)c2cc(OC)ccc21
4. COCCNC(=O)c1cc(-c2ccc(C)c(C)c2)[nH]c1C
5. CCn1ccc2c(cc(C(=O)Nc3ccccc3C(F)(F)F)n2C)c1=O
6. CC(=O)Nc1cc(C(=O)NCc2ccc(OC(C)C)cc2)c2ccc(C)nc2c1

Return:
1: 985; 2: 696; 3: 603; 4: 772; 5: 742; 6: 640

List RP-LC retention time for every entry below, keeping the order given.
1. O=c1c2ncccc2n(Cc2c(F)cccc2Cl)c(=O)n1Cc1cccnc1
2. O=C(NC(c1nnc(-c2ccccc2)o1)c1ccccc1Cl)c1ccco1 (configuration not stated)
3. CC(C)n1c(N2CCN(C(=O)c3ccnn3C)CC2)cc(=O)n(C(C)C)c1=O
4. COc1ccc(N2CCN(c3cc(SCC(=O)Nc4cccc(C#N)c4)ncn3)CC2)cc1

Return:
[852, 911, 725, 895]

I would be grateful if you could provide RP-LC retention time for each of the following entries.
1. Cc1nn(-c2ccccc2)c(C)c1S(=O)(=O)N1CCC(C(=O)N2CCCc3ccccc32)CC1
2. CC(=O)Nc1ccc(-c2nc3ccc(C)cc3s2)cc1

Return:
1040
851

Attribution: the METLIN SMRT retention time set (Domingo-Almenara et al. 2019)
